system: THP-1-differentiated macrophages; experiment: Pro-inflammatory cytokine expression in LPS-challenged THP-1-differentiated macrophages; type: cell-based, human; design: key: “NS” indicates a non-significant reduction in the indicated cytokine; “+” indicates a p value <0.05 in Tukey post test; “++” indicates a p value <0.01 in Tukey post test; conditions: 0.1 nM; 20 min pre-treatment, 24 hrs LPS
Where a SMILES comes first, the peptide text is derived from it. [ ]: non-standard residue; d: D form. The star is where a group is joined. Hexanoyl = CCCCCC(=O)*; Ahx = NCCCCCC(=O)O
value_type: IL-1β, significant reduction in culture supernatant vs LPS treatment

>>> value_measured("CCCCCC(=O)N[C@@H](Cc1ccc(O)cc1)C(=O)N[C@H](C(=O)NCCCCCC(N)=O)[C@@H](C)CC [Compound A19-AM, Dihexa] (Hexanoyl-Tyr-Ile-[Ahx]-NH2)")
"NS"
>>> value_measured("CCC(C)CN1CC2N(Cc3ccc(OC(F)F)cc3)CCC(=O)N2[C@@H](C)C1=O (stereo partly shown) [Compound 6a]")
"NS"

###

system: MRC-5 cells; test: TGFβ-stimulated αSMA expression in MRC-5 cells (HTRF); assay type: cell-based; details: test compound 1 μM, TGFβ 1 ng/ml, HGF 0.01 ng/ml, 48 h
Where a SMILES comes first, the peptide text is derived from it. [ ]: non-standard residue; d: D form. The star is where a group is joined. Hexanoyl = CCCCCC(=O)*; Ahx = NCCCCCC(=O)O
value_type: Significant reduction in αSMA via HTRF compared to TGFβ alone

>>> value_measured("CCC(C)CN1CC2N(Cc3ccc(C(F)(F)F)cc3)CCC(=O)N2[C@@H](C)C1=O (stereo partly shown)")
"++++ (++++ = p < 0.001)"
>>> value_measured("CCC(C)CN1CC2N(C(=O)c3ccc(C(F)(F)F)cc3)CCC(=O)N2[C@@H](C)C1=O (stereo partly shown)")
"++++ (++++ = p < 0.001)"
>>> value_measured("CCCCCC(=O)N[C@@H](Cc1ccc(O)cc1)C(=O)N[C@H](C(=O)NCCCCCC(N)=O)[C@@H](C)CC [Compound A19-AM, Dihexa] (Hexanoyl-Tyr-Ile-[Ahx]-NH2)")
"++++ (++++ = p < 0.001)"
>>> value_measured("CCC(C)CN1CC2N(C(=O)c3ccc(OC(F)F)cc3)CCC(=O)N2[C@@H](C)C1=O (stereo partly shown)")
"++++ (++++ = p < 0.001)"

###

test system: THP-1-differentiated macrophages; test: Pro-inflammatory cytokine expression in LPS-challenged THP-1-differentiated macrophages; format: cell-based, human; design: key: “NS” indicates a non-significant reduction in the indicated cytokine; “+” indicates a p value <0.05 in Tukey post test; “++” indicates a p value <0.01 in Tukey post test; conditions: 10 nM; 20 min pre-treatment, 24 hrs LPS
value_type: IL-6, significant reduction in culture supernatant vs LPS treatment

>>> value_measured("CCC(C)CN1CC2N(Cc3ccc(OC(F)F)cc3)CCC(=O)N2[C@@H](C)C1=O (stereo partly shown)")
"NS"
